The following sequences are shown together with reported shrunken log2 fold change values.
Test system: Escherichia coli TOP10;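 note: peptides expressed intracellularly from a pBAD plasmid library in pooled LB shake-flask culture, induced with 0.3% L-arabinose, DNA abundance read by NGS, three biological replicates, DESeq2 with apeglm shrinkage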
Experiment: shrunken log2 fold change of peptide-encoding DNA abundance (4.5 h post-induction vs induction); higher = less antimicrobial activity (less host growth inhibition)
Settings: time post-induction: 4.5 h; library: site-saturation at positions 5, 18, 19, 20
Output: the number by itself.

The examples below pair each entry with its known result.
RRIRTRPPRLPRPRPRPNDSPRP = -0.00242
RRIRFRPPRLPRPRPRPKGPPRP = 0.0269
RRIRSRPPRLPRPRPRPCNCPRP = 0.0508
RRIRMRPPRLPRPRPRPWGEPRP = 0.232
RRIRSRPPRLPRPRPRPGVAPRP = 0.42
RRIRHRPPRLPRPRPRPYIQPRP = -0.73
RRIRIRPPRLPRPRPRPWMEPRP = -0.172
RRIRVRPPRLPRPRPRPQRPPRP = 0.306

query: Identify the measured shrunken log2 fold change of `RRIRIRPPRLPRPRPRPCHSPRP` for Escherichia coli TOP10.
result: 0.00888

query: Give shrunken log2 fold change (Escherichia coli TOP10) of the following sequence: `RRIRERPPRLPRPRPRPDHSPRP`
result: -0.184
